Known EC50 of a selection of compounds
TARGET_ENTITY: Muscarinic acetylcholine receptor M1 (Homo sapiens)
PROTOCOL_DESCRIPTION: Agonist activity at human muscarinic M1 receptor expressed in CHO cells assessed as effect on calcium mobilization by FLIPR assay
Numbers only here, please. The scale is nM.

Recorded EC50 (compound CO[C@H]1CC[C@](C)(N2CCC(n3c(=O)oc4ccc(C)cc43)CC2)CC1 ): 7.94

compound CCO[C@H]1CC[C@](C)(N2CCC(n3c(=O)oc4ccc(S(C)(=O)=O)cc43)CC2)CC1 , EC50 observed: 12.6

Entry under test: CCO[C@H]1CC[C@](C)(N2CCC(n3c(=O)oc4ccc(S(=O)(=O)CC)cc43)CC2)CC1 . Its EC50 was 200

EC50 recorded for this compound, CCO[C@H]1CC[C@](C)(N2CCC(n3c(=O)oc4ccccc43)CC2)CC1 , is 25.1

Reported EC50 for CCO[C@H]1CC[C@](C)(N2CCC(n3c(=O)oc4ccc(OC)cc43)CC2)CC1 was 2.51

***
According to the records, this compound CCCO[C@H]1CC[C@](C)(N2CCC(n3c(=O)oc4ccc(S(C)(=O)=O)cc43)CC2)CC1 displays EC50 of 2.51

EC50 in this record for Cc1cc2c(cc1F)[nH]c(=O)n2C1CCN(C2CCOCC2)CC1 : 5.01

Kindly note the recorded EC50 for CCO[C@H]1CC[C@](C)(N2CCC(n3c(=O)oc4c(F)cc(C)cc43)CC2)CC1 , which is 1.26

EC50 measured on CCCO[C@H]1CC[C@](C)(N2CCC(N3C(=O)Cc4ccc(C)cc43)CC2)CC1 = 0.501

* * *

PROTOCOL_DESCRIPTION: Clearance in rat blood at 3 mg/kg, po
Assay type: ADME, organism-based
Set-up: dose 3 mg/kg, route oral
REPORTED_PROPERTY: CL/F
Answer format reminder: number followed by unit.

Reported CL/F of CCCO[C@H]1CC[C@](C)(N2CCC(N3C(=O)Cc4ccc(C)cc43)CC2)CC1 : 85 mL/min/kg

Given item COCCO[C@H]1CC[C@](C)(N2CCC(n3c(=O)oc4ccc(C#N)cc43)CC2)CC1 , the value recorded as its CL/F is 23 mL/min/kg

// next item, CL/F requested
Recorded CL/F (compound CCCO[C@H]1CC[C@](C)(N2CCC(n3c(=O)oc4ccc(S(C)(=O)=O)cc43)CC2)CC1 ): 11 mL/min/kg

* * *

TARGET_ENTITY: Muscarinic acetylcholine receptor M2 (Homo sapiens, UniProt P08172)
Sequence (P08172 whole entry): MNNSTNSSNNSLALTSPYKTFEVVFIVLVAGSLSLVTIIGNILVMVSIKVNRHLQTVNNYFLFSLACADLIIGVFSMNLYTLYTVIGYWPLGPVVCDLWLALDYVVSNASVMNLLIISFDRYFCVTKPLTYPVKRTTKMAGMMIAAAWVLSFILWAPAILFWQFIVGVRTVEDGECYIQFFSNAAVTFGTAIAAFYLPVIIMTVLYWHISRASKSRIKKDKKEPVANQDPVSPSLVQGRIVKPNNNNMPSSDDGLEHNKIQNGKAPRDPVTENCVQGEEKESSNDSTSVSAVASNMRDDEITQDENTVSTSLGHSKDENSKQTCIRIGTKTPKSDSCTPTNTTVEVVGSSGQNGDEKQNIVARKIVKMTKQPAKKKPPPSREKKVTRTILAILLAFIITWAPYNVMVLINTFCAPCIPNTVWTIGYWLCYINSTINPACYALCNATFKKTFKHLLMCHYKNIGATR
PROTOCOL_DESCRIPTION: Agonist activity at human muscarinic M2 receptor expressed in CHO cells co-expressing Gqi5 chimeric G-protein assessed as effect on calcium mobilization by FLIPR assay
Quick reference: EC50 of the listed items.
Please give a number only; it is taken to be in nM.

Reported EC50 ( CCCO[C@H]1CC[C@](C)(N2CCC(N3C(=O)Cc4ccc(C)cc43)CC2)CC1 ) = 63.1

EC50 for CCO[C@H]1CC[C@](C)(N2CCC(n3c(=O)oc4ccc(S(C)(=O)=O)cc43)CC2)CC1 is 2510

Please fill in: EC50 reported for CCO[C@H]1CC[C@](C)(N2CCC(n3c(=O)oc4c(F)cc(C)cc43)CC2)CC1 = 794

Next compound, please.
Consider CO[C@H]1CC[C@](C)(N2CCC(N3C(=O)Cc4ccc(C)cc43)CC2)CC1 . Its measured EC50 is 631

* * *

Recorded pEC50 by entry
TARGET_ENTITY: Muscarinic acetylcholine receptor M5 (Homo sapiens)
Sequence (P08912 whole entry): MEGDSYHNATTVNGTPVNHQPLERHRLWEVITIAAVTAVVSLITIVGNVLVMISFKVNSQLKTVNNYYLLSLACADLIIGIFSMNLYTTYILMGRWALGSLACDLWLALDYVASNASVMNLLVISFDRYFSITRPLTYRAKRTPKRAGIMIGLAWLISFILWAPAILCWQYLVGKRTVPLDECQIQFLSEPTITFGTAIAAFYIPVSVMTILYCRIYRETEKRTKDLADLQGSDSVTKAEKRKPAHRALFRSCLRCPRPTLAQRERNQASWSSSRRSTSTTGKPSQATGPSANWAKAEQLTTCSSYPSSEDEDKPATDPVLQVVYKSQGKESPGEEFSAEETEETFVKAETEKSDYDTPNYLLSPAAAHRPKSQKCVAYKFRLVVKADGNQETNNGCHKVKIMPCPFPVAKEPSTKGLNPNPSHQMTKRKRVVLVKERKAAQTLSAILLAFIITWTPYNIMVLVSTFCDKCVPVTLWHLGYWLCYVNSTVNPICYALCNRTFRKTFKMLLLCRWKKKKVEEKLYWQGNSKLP
PROTOCOL_DESCRIPTION: Agonist activity at human muscarinic M5 receptor expressed in CHO cells assessed as effect on calcium mobilization by FLIPR assay
In simple prose, pEC50 is minus the logarithm base ten of a concentration in moles per litre.

GET /values?item= CCO[C@H]1CC[C@](C)(N2CCC(n3c(=O)oc4ccc(S(C)(=O)=O)cc43)CC2)CC1 &system= Muscarinic acetylcholine receptor M5 (Homo sapiens) returns pEC50: 5.90

Hey, Muscarinic acetylcholine receptor M5 (Homo sapiens) data for CCCO[C@H]1CC[C@](C)(N2CCC(N3C(=O)Cc4ccc(C)cc43)CC2)CC1 : pEC50 came out at 7.70

# CO[C@H]1CC[C@](C)(N2CCC(N3C(=O)Cc4ccc(C)cc43)CC2)CC1 with Muscarinic acetylcholine receptor M5 (Homo sapiens): pEC50 is 6.90

// assay Muscarinic acetylcholine receptor M5 (Homo sapiens), entry CCO[C@H]1CC[C@](C)(N2CCC(N3C(=O)Cc4ccc(C)cc43)CC2)CC1 , pEC50 value = 7.70

Consider now this further compound.
Result for CCCO[C@H]1CC[C@](C)(N2CCC(n3c(=O)oc4ccc(S(C)(=O)=O)cc43)CC2)CC1 , tested on Muscarinic acetylcholine receptor M5 (Homo sapiens), pEC50: 6.50

* * *

TARGET_ENTITY: Muscarinic acetylcholine receptor M1 (Homo sapiens, UniProt P11229)
Sequence (P11229 whole entry): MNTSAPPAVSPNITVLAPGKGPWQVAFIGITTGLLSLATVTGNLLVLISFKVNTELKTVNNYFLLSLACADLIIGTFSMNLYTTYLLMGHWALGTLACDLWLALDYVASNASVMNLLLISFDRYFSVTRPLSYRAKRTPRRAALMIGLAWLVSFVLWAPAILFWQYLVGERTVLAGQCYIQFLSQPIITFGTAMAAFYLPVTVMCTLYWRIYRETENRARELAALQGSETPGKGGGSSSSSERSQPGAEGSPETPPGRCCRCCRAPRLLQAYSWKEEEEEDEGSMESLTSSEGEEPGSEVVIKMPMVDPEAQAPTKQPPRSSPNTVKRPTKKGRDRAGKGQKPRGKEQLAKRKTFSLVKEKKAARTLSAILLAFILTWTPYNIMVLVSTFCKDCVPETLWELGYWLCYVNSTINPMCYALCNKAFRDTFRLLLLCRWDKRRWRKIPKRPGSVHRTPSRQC
PROTOCOL_DESCRIPTION: Agonist activity at human muscarinic M1 receptor expressed in CHO cells assessed as effect on calcium mobilization by FLIPR assay
pEC50: −log10 of the molar value.
Everything with pEC50 lower than 9 is class 0; everything else, including exactly 9, is class 1.

Q. Check if pEC50 >= 9 (inclusive). Item: CCCO[C@H]1CC[C@](C)(N2CCC(n3c(=O)[nH]c4cc(F)c(C)cc43)CC2)CC1
A. class 1

Q. Is pEC50 at least 9? Consider CO[C@H]1CC[C@](C)(N2CCC(N3C(=O)Cc4ccc(C)cc43)CC2)CC1
A. class 0

New cases:
Q. Quick check: does COCCO[C@H]1CC[C@](C)(N2CCC(n3c(=O)oc4ccc(C#N)cc43)CC2)CC1 have pEC50 greater than or equal to 9?
A. class 0

Q. Exam item: decide whether the reported pEC50 for COCCO[C@H]1CC[C@](C)(N2CCC(n3c(=O)oc4ccc(C)cc43)CC2)CC1 is at least 9.
A. class 0

Q. Assess whether reported pEC50 for CCO[C@H]1CC[C@](C)(N2CCC(n3c(=O)oc4ccc(C#N)cc43)CC2)CC1 sits at 9 or higher.
A. class 0

Q. Is reported pEC50 greater than or equal to 9 here: CCO[C@H]1CC[C@](C)(N2CCC(N3C(=O)Cc4ccc(C)cc43)CC2)CC1
A. class 1

These entries and their values trace back to ChEMBL document CHEMBL1221359.
